// note: IC50 values for TACE (Homo sapiens (Human), UniProt P78536) were reported in different studies

Molecule: O=C1NC(=O)C(Cn2cccc(F)c2=O)(c2ccc(-c3ccccc3)cc2)N1 (centres unmarked)
Target of assay: TACE (Homo sapiens (Human), UniProt P78536)
Value type: IC50
Readout value: < 0.1 µM

Molecule: Cc1cccn(CC2(c3ccc(F)cc3F)NC(=O)NC2=O)c1=O (centres unmarked)
Target of assay: TACE (Homo sapiens (Human), UniProt P78536)
Value type: IC50
Readout value: 0.1 to 1 µM

Molecule: CC#CCOc1ccc(S(=O)(=O)C2(C(=O)NO)CCCN(Cc3ccc(Cl)cc3)C2)cc1 (centres unmarked)
Target of assay: TACE (Homo sapiens (Human), UniProt P78536)
Value type: IC50
Readout value: 0.695 µM

Molecule: Cc1cccn(CC2(c3ccc(Oc4ccc(Cl)cc4)cc3)NC(=O)NC2=O)c1=O (centres unmarked)
Target of assay: TACE (Homo sapiens (Human), UniProt P78536)
Value type: IC50
Readout value: < 0.1 µM

Molecule: Cc1cccn(CC2(c3cccc(OCc4ccccc4)c3)NC(=O)NC2=O)c1=O (centres unmarked)
Target of assay: TACE (Homo sapiens (Human), UniProt P78536)
Value type: IC50
Readout value: < 0.1 µM

Could you now look at the following molecule, please?
Write IC50 of COc1cc(N2CCN(C(=O)[C@@H](C)C[C@H]3NC(=O)NC3=O)CC2)cc(F)c1F (stereo in doubt) ; system used: TACE (Homo sapiens (Human), UniProt P78536)
> 0.1 µM

###

// note: pIC50 values for TACE (Homo sapiens (Human)) were reported in different studies
pIC50: −log10 of the molar value.

Solved cases (7 shown):
Compound: O=CN(O)C(CCC(F)(F)F)CS(=O)(=O)N1CCc2ccc(Cl)cc2C1 (centres unmarked)
pIC50: 6.94
--
Compound: CCc1cc(N2CCN(C(=O)CC[C@@]3(C)NC(=O)NC3=O)C[C@@H]2C)ccc1Cl
pIC50: < 7.00
--
Compound: CCCCOc1ccc(S(=O)(=O)C2(C(=O)NO)CCN(Cc3cccc(OCCN4CCOCC4)c3)CC2)cc1
pIC50: 6.30
--
Compound: O=C1NC(=O)C(Cn2ccccc2=O)(c2ccc(F)c(F)c2)N1 (centres unmarked)
pIC50: > 7.00
--
Compound: COc1c(Cl)cccc1N1CCN(C(=O)CC[C@@]2(C)NC(=O)NC2=O)C[C@@H]1C
pIC50: < 7.00
--
Compound: CC(C)c1ccc2c(c1)CCN(S(=O)(=O)C[C@H]([C@H]1CCCO1)N(O)C=O)C2
pIC50: 6.09
--
Compound: COc1ccc(F)cc1C1(Cn2cccc(C)c2=O)NC(=O)NC1=O (centres unmarked)
pIC50: > 7.00

Could you now look at the following compound, please?
Write pIC50 of CCCc1ccc(C2(Cn3cccc(C)c3=O)NC(=O)NC2=O)cc1 (centres unmarked) ; system used: TACE (Homo sapiens (Human))
> 7.00

###

// note: pIC50 values for TACE (Homo sapiens (Human)) were reported in different studies
pIC50: −log10 of the molar value.

Compound: CC#CCOc1ccc(S(=O)(=O)C2(C(=O)NO)CCN(S(=O)(=O)C(F)(F)F)CC2)cc1
pIC50: 6.94
--
Compound: COc1cccc(N2CCN(C(=O)CCC3(c4cccnc4)NC(=O)NC3=O)CC2)c1 (centres unmarked)
pIC50: < 7.00
--
Compound: CC#CCOc1ccc(S(=O)(=O)C2(C(=O)NO)CCN(Cc3cccnc3)CC2)cc1
pIC50: 7.06
--
Compound: Cc1cc(C2(Cn3cccc(C)c3=O)NC(=O)NC2=O)ccc1OC1C=CCCC1 (centres unmarked)
pIC50: > 7.00
--
Compound: COCCOC(=O)N1CCN(S(=O)(=O)c2cc(F)c(Oc3ccc(Cl)cc3)c(F)c2)[C@@H](C(=O)NO)C1
pIC50: 6.00 to 7.30

Write pIC50 of COc1ccccc1Oc1ccc(C2(Cn3cccc(C)c3=O)NC(=O)NC2=O)cc1F (centres unmarked) ; system used: TACE (Homo sapiens (Human))
> 7.00

Write pIC50 of CC(C)c1ccc2c(c1)CCN(S(=O)(=O)CC(C1CCCC1)N(O)C=O)C2 (centres unmarked) ; system used: TACE (Homo sapiens (Human))
< 5.30

Write pIC50 of COc1ccc(C2(Cn3cccc(C)c3=O)NC(=O)NC2=O)c(OC)c1 (centres unmarked) ; system used: TACE (Homo sapiens (Human))
> 7.00

Write pIC50 of O=CN(O)C(CS(=O)(=O)N1CCc2ccccc2C1)C1CC1 (centres unmarked) ; system used: TACE (Homo sapiens (Human))
6.94

Write pIC50 of `COc1cc(N2CCN(C(=O)CC[C@H]3NC(=O)NC3=O)CC2)cc(OC)c1F` ; system used: TACE (Homo sapiens (Human))
< 7.00
